# systemTested: UniProtKB P63000
# procedureSummary: Ras GTP binding domain inhibition assay (Cy3-GTP/Cy5-GTP competition)
# conditionContext: at 20 μM, with SOS
quantityKind: Rac-1 + SOS: % inh.

molecule	assayResult
COc1cccc(-c2sc3nc(-c4nccn4C)nc(N4CCC(OC)C4)c3c2-c2ccccc2)c1F (stereo not shown) [drawing 1025]	B (26-50% inhibition)
COc1cccc(-c2sc3nc(-c4nccn4C)nc(NC4CCC(OC)C4)c3c2-c2ccccc2)c1F (stereo not shown) [drawing 1020]	B (26-50% inhibition)
COc1cccc(-c2sc3nc(-c4nccn4C)nc(N4CCC(OC)C4)c3c2-c2ccccc2)c1F.Cl (stereo not shown) [drawing 973]	0 (0% inhibition)

* * *

# systemTested: Rho-A (Homo sapiens, UniProt P61586)
# procedureSummary: Ras GTP binding domain inhibition assay (Cy3-GTP/Cy5-GTP competition)
# conditionContext: without SOS, read-out: Rho-A: % inh.
inhibition at 20 µM for assorted compounds

compound	inhibition at 20 µM
O=C(c1nc(-c2ccccn2)nc(O)c1O)N1CCCC1 [drawing 966]	76 to 100%
COc1ccc(Cn2cnc(-c3nc(O)c4scc(-c5ccccn5)c4n3)c2)cc1 [drawing 974]	0%

Give inhibition at 20 µM (Rho-A (Homo sapiens, UniProt P61586)) of the following compound: Cc1c(-c2ccn(C)n2)sc2nc(-c3nccn3C)nc(NCCOC(=O)N(C)C)c12 [drawing 1053]
76 to 100%

* * *

inhibition at 20 µM for assorted molecules
# systemTested: UniProt:P63000
# procedureSummary: Ras GTP binding domain inhibition assay (Cy3-GTP/Cy5-GTP competition)
# conditionContext: with SOS, read-out: Rac-1 + SOS: % inh.
# Text: The following method was developed as specific assay for the following proteins: KRas wild type, KRas Q61H mutant, KRas G12C mutant, KRas G12D mutant, HRas wild type, Rac-1, and Rho-A. […] The small GTPases proteins: KRas wild type. KRas Q61H mutant, KRas G12C mutant, KRas G12D mutants, HRas wild type, Rac-1, and Rho-A were expressed as His-tagged proteins. In addition, the Guanosine nucleotide Exchange Factor (GEF) Sos protein (residues 556-1049) was expressed as a His-tagged protein. […]

Solved entries:
molecule	assayResult
Cn1ccc(-c2sc3nc(-c4nccn4C)nc(N4CCC5(CCOC5)C4)c3c2-c2ccccc2)n1 (stereo not drawn) [drawing 992]	26 to 50%
Cn1ccc(-c2sc3nc(-c4nccn4C)nc(N[C@H]4C[C@@H](O)C4)c3c2-c2ccccc2)n1 [drawing 1043]	1 to 25%

Give inhibition at 20 µM (UniProt:P63000) of the following molecule: CN(Cc1ccccc1)C(=O)c1nc(-c2ccccn2)nc(O)c1O [drawing 934]
26 to 50%

* * *

# Test system: KRas Q61H mutant
# procedureSummary: Ras GTP binding domain inhibition assay (Cy3-GTP/Cy5-GTP competition)
# Design: species or system human
# conditionContext: 20 μM; with SOS
quantityKind: KRas Q61H mutant + SOS: % inh.

Solved entries:
compound	assayResult
COCC(C)Nc1nc(-c2nccn2C)nc2sc(-c3ccccc3Cl)c(-c3cscn3)c12 (centres unmarked) [drawing 854]	D (76-100% inhibition)
COc1ccc(Cn2cnc(-c3nc(O)c4scc(-c5ccccn5)c4n3)c2)cc1 [drawing 839]	A (1-25% inhibition)
COCC(C)Nc1nc(-c2nccn2C)nc2sc(-c3ccn(C)n3)c(-c3ccc(OC)cc3)c12 (centres unmarked) [drawing 869]	A (1-25% inhibition)
COC(=O)c1nc(C2NCCN2C)nc(O)c1O (centres unmarked)	C (51-75% inhibition)
COCCNc1nc(-c2cn(C)cn2)nc2sc(-c3cc(OC)ccc3Cl)c(-c3ccc(OC)cc3)c12 [drawing 795]	D (76-100% inhibition)

Moving on to another compound below.
Form field: reported KRas Q61H mutant + SOS: % inh. of COC1CCN(c2nc(-c3nccn3C)nc3sc(-c4ccnn4C)c(-c4ccccc4)c23)C1.Cl (centres unmarked)
C (51-75% inhibition)

* * *

inhibition at 20 µM for assorted compounds
# systemTested: KRas G12D mutant (Homo sapiens, UniProt P01116, G12D)
# Construct: fused on or other part: His tag, used for capture on nickel-coated plates
# procedureSummary: Ras GTP binding domain inhibition assay (Cy3-GTP/Cy5-GTP competition)
# conditionContext: at 20 μM, with SOS; read-out: KRas G12D mutant + SOS: % inh.

compound	quantityKind	assayResult
COCCCNc1nc(-c2nccn2C)nc2sc(-c3ccn(C)n3)c(-c3ccc(OC)cc3)c12 [drawing 1005]	inhibition at 20 µM	1 to 25%
COC1CCN(c2nc(-c3nccn3C)nc3sc(-c4ccccc4Cl)c(-c4cscn4)c23)C1 (centres unmarked) [drawing 984]	inhibition at 20 µM	51 to 75%
COC1CCC(Nc2nc(-c3nccn3C)nc3sc(-c4cccc5[nH]ncc45)c(-c4ccccc4)c23)C1 (centres unmarked) [drawing 1023]	inhibition at 20 µM	26 to 50%
COc1cccc(Oc2nc(-c3ccccn3)nc(O)c2OC)c1 [drawing 936]	inhibition at 20 µM	51 to 75%
CN(Cc1ccccc1)C(=O)c1nc(-c2ccccn2)nc(O)c1O [drawing 934]	inhibition at 20 µM	26 to 50%
CO[C@H]1CC[C@@H](Nc2nc(-c3nccn3C)nc3sc(-c4ccn(C(C)C)n4)c(C)c23)C1 [drawing 1054]	inhibition at 20 µM	51 to 75%

Form field: reported inhibition at 20 µM of COc1cccc(Cn2ccnc2-c2nc(O)c3scc(-c4ccc(OCC(C)C)nc4)c3n2)c1 [drawing 1035]
51 to 75%

Form field: reported inhibition at 20 µM of CC(C)COc1ccc(-c2csc3c(O)nc(-c4nccn4Cc4ccccn4)nc23)cn1 [drawing 1034]
51 to 75%

Form field: reported inhibition at 20 µM of COC1CCN(c2nc(-c3nccn3C)nc3sc(-c4ccc(N)nc4C)c(-c4ccccc4)c23)C1 (centres unmarked) [drawing 953]
1 to 25%

Form field: reported inhibition at 20 µM of Oc1nc(-c2ncc3n2CCCC3)nc2c(-c3ccccn3)csc12 [drawing 968]
51 to 75%

Form field: reported inhibition at 20 µM of CO[C@H]1C[C@@H](Nc2nc(-c3nccn3C)nc3sc(-c4cnn(C)c4)c(-c4ccccc4)c23)C1 [drawing 1027]
76 to 100%

* * *

# systemTested: KRas G12D mutant (Homo sapiens, UniProt P01116, G12D)
# Construct: fused on or other part: His tag, used for capture on nickel-coated plates
# procedureSummary: Ras GTP binding domain inhibition assay (Cy3-GTP/Cy5-GTP competition)
# conditionContext: at 20 μM, with SOS; read-out: KRas G12D mutant + SOS: % inh.
inhibition at 20 µM for assorted compounds

Solved entries:
compound	quantityKind	assayResult
COCCNc1nc(-c2nccn2C)nc2sc(-c3cc(OC)ccc3Cl)c(-c3ccc(OC)cc3)c12 [drawing 1012]	inhibition at 20 µM	26 to 50%
COCC(C)Nc1nc(-c2nccn2C)nc2sc(-c3ccn(C)n3)c(-c3ccccc3)c12 (stereo not drawn) [drawing 999]	inhibition at 20 µM	26 to 50%
COc1nscc1-c1sc2nc(-c3nccn3C)nc(N3CCC(OC)C3)c2c1-c1ccccc1 (stereo not drawn) [drawing 975]	inhibition at 20 µM	51 to 75%
CO[C@@H]1CCC(Nc2nc(-c3nccn3C)nc3sc(-c4ccn(C)n4)c(-c4ccccc4)c23)C1 (stereo partly drawn) [drawing 994]	inhibition at 20 µM	26 to 50%
Cn1ccnc1-c1nc(O)c(O)c(C(=O)N2CCCCC2)n1 [drawing 961]	inhibition at 20 µM	1 to 25%
Oc1nc(-c2cn3cccnc3n2)nc2c(-c3ccccn3)csc12 [drawing 983]	inhibition at 20 µM	1 to 25%
Cc1cn(C)c(-c2nc(O)c3scc(-c4ccccn4)c3n2)n1 [drawing 942]	inhibition at 20 µM	26 to 50%
COC1CCN(c2nc(-c3nccn3C)nc3sc(-c4ccnn4C)c(-c4ccccc4)c23)C1 (stereo not drawn) [drawing 972]	inhibition at 20 µM	51 to 75%
Cc1c(-c2ccn(C)n2)sc2nc(-c3nccn3C)nc(NCCOC(=O)N(C)C)c12 [drawing 1053]	inhibition at 20 µM	76 to 100%
COC1CCN(c2nc(-c3nccn3C)nc3sc(-c4ccnc(N(C)C)c4)c(-c4ccccc4)c23)C1 (stereo not drawn) [drawing 958]	inhibition at 20 µM	51 to 75%

Form field: reported inhibition at 20 µM of CO[C@H]1C[C@@H](Nc2nc(-c3ccccn3)nc3sccc23)C1 [drawing 1037]
51 to 75%

Form field: reported inhibition at 20 µM of CO[C@H]1C[C@@H](Nc2nc(-c3nccn3C)nc3sc(C(=O)NC(C)C)c(-c4ccccc4)c23)C1 [drawing 1055]
51 to 75%
